- Assay system: T1, mouse SAD-A KD-UBA fragment (kinase domain and UBA domain) (mouse)
- T1 chain: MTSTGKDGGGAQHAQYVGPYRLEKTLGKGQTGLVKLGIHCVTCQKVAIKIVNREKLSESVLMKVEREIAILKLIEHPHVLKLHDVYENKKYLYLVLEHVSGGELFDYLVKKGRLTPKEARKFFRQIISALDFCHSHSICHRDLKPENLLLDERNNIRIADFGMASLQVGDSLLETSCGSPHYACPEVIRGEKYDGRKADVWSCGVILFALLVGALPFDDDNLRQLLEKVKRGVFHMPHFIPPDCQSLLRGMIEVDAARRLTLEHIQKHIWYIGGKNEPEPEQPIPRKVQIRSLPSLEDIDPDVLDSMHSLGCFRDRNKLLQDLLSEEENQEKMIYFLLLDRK
- Assay procedure: apparent Ki from trans-inhibition of KD-UBA kinase activity; residual activity a=0.19
Measurement label: pKi
Note on units: pKi is unitless, being -log10 of a concentration expressed in mol/L.

Query :: Reported pKi for MSNLTPESSPELAKKSWFGNFINLE [AIS-containing peptide of mouse SAD-A (residues 506-530)] : what is it?
Result :: 4.82
